Data provenance: patent US20260365670A1

Tested Target: EGFR Exon19Del (Homo sapiens, UniProt P00533, DEL746-750)
Construct: purchased Carna Bio
Sequence (P00533 with tags, fused parts or gaps DEL746-750 limits assumed): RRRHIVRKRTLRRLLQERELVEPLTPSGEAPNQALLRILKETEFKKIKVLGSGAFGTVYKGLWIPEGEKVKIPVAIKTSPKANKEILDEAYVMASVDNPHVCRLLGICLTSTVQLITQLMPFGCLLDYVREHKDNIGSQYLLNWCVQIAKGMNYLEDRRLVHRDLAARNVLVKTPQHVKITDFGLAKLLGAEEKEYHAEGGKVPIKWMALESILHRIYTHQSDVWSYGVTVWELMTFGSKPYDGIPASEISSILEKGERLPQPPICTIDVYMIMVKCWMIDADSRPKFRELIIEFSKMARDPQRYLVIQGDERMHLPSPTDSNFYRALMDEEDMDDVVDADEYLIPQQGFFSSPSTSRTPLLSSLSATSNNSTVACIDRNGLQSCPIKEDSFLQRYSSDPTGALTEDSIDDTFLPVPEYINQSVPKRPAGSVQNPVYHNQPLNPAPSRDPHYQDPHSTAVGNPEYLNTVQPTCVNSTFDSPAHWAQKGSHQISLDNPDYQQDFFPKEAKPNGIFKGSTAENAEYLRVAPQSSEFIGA
Assay Protocol: Inhibition of EGFR Exon19Del biochemical enzymatic activity (HTRF)
Study Conditions: EGFR Del19, 1 mM ATP, 1 h, room temperature, read-out: IC50 @Del19
Description: Biological Example 1: Inhibition of EGFR WT and Mutant Biochemical Enzymatic Activity The inhibition potency of compounds against these enzymes was assessed using Homogenous Time Resolved Fluorescence approach (HTRF, CisBio. Cat No. 62TKOPEJ). Inhibitory effects of the compounds were determined by measuring the enzymatic activity of EGFR enzyme phosphorylates 1 μM TK Substrate-biotin in the presence of 1 mM adenosine-5′-triphosphate (ATP) and varying concentrations of the test compound. […]
pIC50: −log10 of the molar value.
Observable: pIC50

Check out these entries, answers already filled in.
- Molecule: "CN1CCN(C2CCN(c3ccc4nc5n(c4c3)C34CCC(CN(CCOc6c(cnn6C)-c6cc(cn(C)c6=O)C(=O)N5)C3)C4)CC2)CC1 (single isomer, unassigned) [Example A106B]"
  pIC50: 8.92
- Molecule: "Cn1ncc2c1OCCN1CC3CCC(C3)(C1)n1c(nc3ccc(N4CC(N5CCOCC5)C4)cc31)NC(=O)c1cc-2c(=O)n(C)c1 (single isomer, unassigned) [Example A69A]"
  pIC50: 5.92
- Molecule: "CN1CCN(c2ccc3c(c2)nc2n3C34CCC(CN(CCOc5c(cnn5C)-c5cc(cn(C)c5=O)C(=O)N2)C3)C4)CC1 (centres unmarked) [Example A60]"
  pIC50: 7.64

(I) CN(C)C1CN(c2ccc3nc4n(c3c2)C23CCC(CN(CCOc5c(cnn5C)-c5cc(cn(C)c5=O)C(=O)N4)C2)C3)C1 (single isomer, unassigned) [Example A65B]
(II) Cn1ncc2c1OCCN1CC3CCC(C3)(C1)n1c(nc3ccc(N4CCN(C5COC5)CC4)cc31)NC(=O)c1cc-2c(=O)n(C)c1 (single isomer, unassigned) [Example A71B]
## Task Could you point out whether the larger pIC50 belongs to I or to II ? Refer to your chosen entry by its label in the reply.
## Result I
(I: 9.03, II: 8.74)

====

Tested Target: EGFR wild type (Homo sapiens, UniProt P00533)
Construct: purchased Carna Bio
Sequence (P00533 25-1210): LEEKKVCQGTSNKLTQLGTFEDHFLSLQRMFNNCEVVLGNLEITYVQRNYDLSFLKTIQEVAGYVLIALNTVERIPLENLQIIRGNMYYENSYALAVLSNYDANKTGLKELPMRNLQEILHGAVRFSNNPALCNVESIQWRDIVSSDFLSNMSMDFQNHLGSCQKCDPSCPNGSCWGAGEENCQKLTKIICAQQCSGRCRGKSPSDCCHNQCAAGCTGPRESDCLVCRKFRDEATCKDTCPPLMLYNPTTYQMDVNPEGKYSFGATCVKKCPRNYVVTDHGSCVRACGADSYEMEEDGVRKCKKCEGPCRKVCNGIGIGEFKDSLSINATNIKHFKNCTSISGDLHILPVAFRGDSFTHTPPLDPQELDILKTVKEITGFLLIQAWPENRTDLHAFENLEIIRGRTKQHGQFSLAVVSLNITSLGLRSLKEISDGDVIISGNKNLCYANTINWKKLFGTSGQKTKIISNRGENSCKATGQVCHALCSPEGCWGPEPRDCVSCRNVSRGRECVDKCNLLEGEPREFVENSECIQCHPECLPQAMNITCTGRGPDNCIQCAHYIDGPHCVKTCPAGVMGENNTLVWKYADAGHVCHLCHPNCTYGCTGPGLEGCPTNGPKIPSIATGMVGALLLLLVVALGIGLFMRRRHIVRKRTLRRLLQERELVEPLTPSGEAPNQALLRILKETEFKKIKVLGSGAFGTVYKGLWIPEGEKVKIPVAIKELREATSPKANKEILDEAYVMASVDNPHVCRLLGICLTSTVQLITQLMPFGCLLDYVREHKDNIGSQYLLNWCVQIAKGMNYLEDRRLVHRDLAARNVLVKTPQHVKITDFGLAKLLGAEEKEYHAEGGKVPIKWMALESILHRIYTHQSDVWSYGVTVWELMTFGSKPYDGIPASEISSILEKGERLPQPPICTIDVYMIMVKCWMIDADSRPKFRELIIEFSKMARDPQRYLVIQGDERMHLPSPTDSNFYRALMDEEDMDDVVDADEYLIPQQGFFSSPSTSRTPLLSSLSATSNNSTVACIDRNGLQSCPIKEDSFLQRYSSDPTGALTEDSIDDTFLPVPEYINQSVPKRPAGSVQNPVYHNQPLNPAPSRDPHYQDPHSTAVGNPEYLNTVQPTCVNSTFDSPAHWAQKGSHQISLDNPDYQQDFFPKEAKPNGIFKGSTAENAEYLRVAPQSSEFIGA
Assay Protocol: Inhibition of EGFR wild type biochemical enzymatic activity (HTRF)
Study Conditions: EGFR WT, 1 mM ATP, 1 h, room temperature, read-out: IC50 (nM) @WT
Observable: IC50 (nM)

(a) C[C@@H]1CCCOc2c(cnn2C)-c2cc(cn(C)c2=O)C(=O)Nc2nc3ccc(N4CCC5(CN(C)C5)C4)cc3n2C1
(b) CN(C)CCN(C)c1ccc2nc3n(c2c1)C12CCC(CC1)CN(CCOc1c(cnn1C)-c1cc(cn(C)c1=O)C(=O)N3)C2
(c) CN(C)[C@@H]1CCN(c2ccc3nc4n(c3c2)C23CCC(CN(CCOc5c(cnn5C)-c5cc(cn(C)c5=O)C(=O)N4)C2)C3)C1 (single isomer, unassigned) [Example A66D]
(d) C[C@@H]1CCCOc2c(cnn2C)-c2cc(cn(C)c2=O)C(=O)Nc2nc3ccc(N4CC5(CN(C)C5)C4)cc3n2C1
## Task Put the compounds in ascending order of IC50. Put the labels in the order asked and list them.
## Result c, d, a, b
(c: 18 nM, d: 71 nM, a: 295 nM, b: 2790 nM)

(A) CN(C)C1CN(c2ccc3nc4n(c3c2)C23CCC(CN(CCOc5c(cnn5C)-c5cc(cn(C)c5=O)C(=O)N4)C2)C3)CC1(F)F (single isomer, unassigned) [Example A99B]
(B) C[C@@H]1CCCOc2ccccc2-c2cc(cn(C)c2=O)C(=O)Nc2nc3ccc(N4CCN(C)CC4)cc3n2C1
## Task Could you point out whether the larger IC50 belongs to A or to B ? Refer to your chosen entry by its label in the reply.
## Result A

(P) C[C@@H]1CCCOc2c(cnn2C)-c2cc(cn(C)c2=O)C(=O)Nc2nc3ccc(N4CCC(N5CCN(C)CC5)CC4)cc3n2C1
(Q) C[C@@H]1CCCOc2c(cnn2C)-c2cc(cn(C)c2=O)C(=O)Nc2nc3ccc(N4CCC(N(C)C)C4)cc3n2C1 (stereo partly drawn)
## Task Compare P and Q and name the one whose reported IC50 is smaller. Refer to your chosen entry by its label in the reply.
## Result P

(a) CN1CCN(c2ccc3nc4n(c3c2)CCN(CC(F)(F)F)CCOc2c(cnn2C)-c2cc(cn(C)c2=O)C(=O)N4)CC1
(b) Cn1ncc2c1OCCN1CC3CCC(C3)(C1)n1c(nc3ccc(N4CCC(N5CC(F)C5)CC4)cc31)NC(=O)c1cc-2c(=O)n(C)c1 (single isomer, unassigned) [Example A87B]
## Task Could you point out whether the larger IC50 belongs to a or to b ? Refer to your chosen entry by its label in the reply.
## Result a
